// values below are reported LD50
# ASSAY_EXPLANATION: Toxicity of bis-compounds after single systemic dose
# Type: in vivo
# STUDY_CONDITIONS: mouse, in vivo, iv; 20% DMSO, 16% cremaphor; conc. sol. 15 mg/ml; single dose

COMPOUND | MEASUREMENT_UNIT | VALUE_MODIFIER | LD50
Cc1cc(C)c(O)c(C(CC(C)CC(C)(C)C)c2cc(C)cc(C)c2O)c1 (centres unmarked) | mg/kg | > | 200
Cc1cc(C)c(O)c(C(CCCCCCC(C)C)c2cc(C)cc(C)c2O)c1 | mg/kg | = | 200

###

// values below are reported viability
# ASSAY_EXPLANATION: Cell viability (MTS) after treatment with bis-compound
# Assay type: cell-based
# STUDY_CONDITIONS: human, pha-activated pbmc, 5 μg/ml

COMPOUND | MEASUREMENT_UNIT | viability
CCCCCC(c1cc(C)cc(C)c1O)c1cc(C)cc(C)c1O [Compound 54019] | % | 101
CCC(C)(c1cc(C)c(O)c(C)c1)c1cc(C)c(O)c(C)c1 [Compound 54056] | % | 87
CCC(c1cc(C)cc(C(C)(C)C)c1O)c1cc(C)cc(C(C)(C)C)c1O [Compound 54008] | % | 69
Cc1cc(C(c2cc(C)c(O)c(C)c2)c2ccc(O)c(O)c2)cc(C)c1O [Compound 54004] | % | 99
Cc1cc(C(C)c2cc(C)c(O)c(C(C)(C)C)c2)cc(C(C)(C)C)c1O [Compound 54054] | % | 27
Cc1cc(C(c2ccccc2)c2cc(C)c(O)c(C(C)(C)C)c2)cc(C(C)(C)C)c1O [Compound 54058] | % | 86
Cc1cc(C)c(O)c(C(CC(C)CC(C)(C)C)c2cc(C)cc(C)c2O)c1 (centres unmarked) [Compound 51853] | % | 104
CCCCCCC(C)(c1ccc(O)cc1)c1ccc(O)c(C)c1 (centres unmarked) [Compound 54059] | % | 88
CCC(c1cc(C)c(O)c(C(C)(C)C)c1)c1cc(C)c(O)c(C(C)(C)C)c1 [Compound 54472] | % | 26
Cc1cc(C(c2ccc(C(=O)O)cc2)c2cc(C)c(O)c(C(C)(C)C)c2)cc(C(C)(C)C)c1O [Compound 54346] | % | 84
CCCCC(C)(c1cc(C)c(O)c(C)c1)c1cc(C)c(O)c(C)c1 [Compound 52782] | % | 116
Cc1cc(C(c2ccc(C(=O)O)cc2)c2cc(C)c(O)c(C)c2)cc(C)c1O [Compound 54050] | % | 86
CC(C)(C)c1cc2c(cc1O)C(C)(C)c1cc(O)c(C(C)(C)C)cc1O2 [Compound 53433] | % | 26
Cc1cc(C)c(O)c(C(CCCCCCC(C)C)c2cc(C)cc(C)c2O)c1 [Compound 8302] | % | 100
CCC(c1cc(C)c(O)c(C)c1)c1cc(C)c(O)c(C)c1 [Compound 54471] | % | 83
CCCC(C)(c1cc(C)c(O)c(C)c1)c1cc(C)c(O)c(C)c1 [Compound 54064] | % | 112
Cc1cc(Cl)cc(Cc2cc(Cl)cc(C)c2O)c1O [Compound 8296] | % | 37

###

# ASSAY_EXPLANATION: Toxicity of bis-compounds after single systemic dose
# Format: in vivo
# STUDY_CONDITIONS: mouse, in vivo; IV; 20% EGME, 16% cremaphor; conc. sol. 10 mg/ml; single dose

ITEM_SMILES | LD50
CCCCCC(c1cc(C)cc(C(C)(C)C)c1O)c1cc(C)cc(C(C)(C)C)c1O | < 100 mg/kg

###

# ASSAY_EXPLANATION: Toxicity of bis-compounds after single systemic dose
# Assay type: in vivo
# STUDY_CONDITIONS: mouse, in vivo, iv; 20% DMSO, 16% cremaphor; conc. sol. 10 mg/ml; single dose
// values below are reported LD50

ITEM_SMILES | LD50
CCCCCC(c1cc(C)cc(C)c1O)c1cc(C)cc(C)c1O | 100 to 150 mg/kg
CCCC(C)(c1cc(C)c(O)c(C)c1)c1cc(C)c(O)c(C)c1 | 100 to 150 mg/kg
CCC(C)(c1ccc(O)c(C)c1)c1ccc(O)c(C)c1 | 100 to 150 mg/kg

###

# System: IL-12 induction of IFN-γ in PHA-activated human PBMC
# ASSAY_EXPLANATION: Screening assay for compounds which inhibit IL-12 induction of IFN-γ (ELISA)
# Type: cell-based
# STUDY_CONDITIONS: 5 μg/ml, IL-2 25 U/ml + IL-12 0.5 ng/ml, 48 hr, single test, read-out: % INH of IFNγ
# Method: Human peripheral blood monocytes (PBMC) were obtained from commercial sources as a leukophoresis from a healthy volunteer and were purified by centrifugation on a Ficoll-Hypaque (Pharmacia) gradient (1700 rpm for 20 min). […] A quantitative ELISA was developed by coating 96-well plates with an mouse monoclonal antibody against human IFN-γ, 1 μg/ml in phosphate buffered saline (PBS) (Pestka Biological Laboratories), overnight at 4° C. […]

ITEM_SMILES | ASSAYED_SYSTEM | inhibition at 5 µg/mL (%)
Cc1cc(C(c2ccc(Cl)cc2)c2cc(C)c(O)c(C)c2)cc(C)c1O | IL-12 induction of IFN-γ in PHA-activated human PBMC | 28
Cc1cc(O)c(C(C)C)cc1C(c1ccccc1)c1cc(C(C)C)c(O)cc1C | IL-12 induction of IFN-γ in PHA-activated human PBMC | 95
Cc1cc(C(C)c2cc(C)cc(C(C)(C)C)c2O)c(O)c(C(C)(C)C)c1 | IL-12 induction of IFN-γ in PHA-activated human PBMC | 96
Cc1cc(C(c2ccc(C(C)C)cc2)c2cc(C)c(O)c(C)c2)cc(C)c1O | IL-12 induction of IFN-γ in PHA-activated human PBMC | 65
CCC(c1cc(C)cc(C(C)(C)C)c1O)c1cc(C)cc(C(C)(C)C)c1O | IL-12 induction of IFN-γ in PHA-activated human PBMC | 91
Cc1cc(C)c(O)c(C(CCCCCCC(C)C)c2cc(C)cc(C)c2O)c1 | IL-12 induction of IFN-γ in PHA-activated human PBMC | 95
Cc1cc(C(C)c2cc(C)c(O)c(C(C)(C)C)c2)cc(C(C)(C)C)c1O | IL-12 induction of IFN-γ in PHA-activated human PBMC | 98
CCC(c1cc(C)c(O)c(C(C)C)c1)c1cc(C)c(O)c(C(C)C)c1 | IL-12 induction of IFN-γ in PHA-activated human PBMC | 93
CCCCC(C)(c1cc(C)c(O)c(C)c1)c1cc(C)c(O)c(C)c1 | IL-12 induction of IFN-γ in PHA-activated human PBMC | 102
CCCCCC(c1cc(C)cc(C(C)(C)C)c1O)c1cc(C)cc(C(C)(C)C)c1O | IL-12 induction of IFN-γ in PHA-activated human PBMC | 55
CCCC(C)(c1cc(C)c(O)c(C)c1)c1cc(C)c(O)c(C)c1 | IL-12 induction of IFN-γ in PHA-activated human PBMC | 79
Cc1cc(C)c(O)c(Cc2cc(C)cc(C)c2O)c1 | IL-12 induction of IFN-γ in PHA-activated human PBMC | 77

###

# Test system: IL-12 induction of IFN-γ in PHA-activated human PBMC
# ASSAY_EXPLANATION: Screening assay for compounds which inhibit IL-12 induction of IFN-γ (ELISA)
# Assay type: cell-based
# STUDY_CONDITIONS: 5 μg/ml, IL-2 25 U/ml + IL-12 0.5 ng/ml, 48 hr, single test, read-out: % INH of IFNγ
# Experimental: Human peripheral blood monocytes (PBMC) were obtained from commercial sources as a leukophoresis from a healthy volunteer and were purified by centrifugation on a Ficoll-Hypaque (Pharmacia) gradient (1700 rpm for 20 min). […] A quantitative ELISA was developed by coating 96-well plates with an mouse monoclonal antibody against human IFN-γ, 1 μg/ml in phosphate buffered saline (PBS) (Pestka Biological Laboratories), overnight at 4° C. […]
inhibition at 5 µg/mL below 90% gives Not met; inhibition at 5 µg/mL at or above it gives Met.

COMPOUND | LABEL_VALUE
Cc1cc(C(c2ccc(C(=O)O)cc2)c2cc(C)c(O)c(C)c2)cc(C)c1O | Not met
Cc1cc(C)c(O)c(C(CC(C)CC(C)(C)C)c2cc(C)cc(C)c2O)c1 (stereo not drawn) | Met
CCCC(c1cc(C)c(O)c(C)c1)c1cc(C)c(O)c(C)c1 | Met

###

// values below are reported inhibition at 5 µg/mL
# System: IL-12 induction of IFN-γ in PHA-activated human PBMC
# ASSAY_EXPLANATION: Screening assay for compounds which inhibit IL-12 induction of IFN-γ (ELISA)
# Assay type: cell-based
# STUDY_CONDITIONS: 5 μg/ml, IL-2 25 U/ml + IL-12 0.5 ng/ml, 48 hr, single test, read-out: % INH of IFNγ

COMPOUND | inhibition at 5 µg/mL (%)
CCC(c1cc(C)c(O)c(C)c1)c1cc(C)c(O)c(C)c1 [Compound 54471] | 89
Cc1cc(C(c2ccccc2)c2cc(C)c(O)c(C(C)(C)C)c2)cc(C(C)(C)C)c1O [Compound 54058] | 88
Cc1cc(C(c2ccc(C(=O)O)cc2)c2cc(C)c(O)c(C(C)(C)C)c2)cc(C(C)(C)C)c1O [Compound 54346] | 91

These data points were gathered from patent US5880146A.
